target: FLuc-C-HiBiT (Photinus pyralis, UniProt P08659); construct: firefly luciferase with C-terminal HiBiT tag, E. coli expressed; assay: biochemical; conditions: enzyme activity, 10 uM ATP; read-out: IC50 or SDR50 (mM) / FLuc E
Sequence (P08659 whole entry, looked up): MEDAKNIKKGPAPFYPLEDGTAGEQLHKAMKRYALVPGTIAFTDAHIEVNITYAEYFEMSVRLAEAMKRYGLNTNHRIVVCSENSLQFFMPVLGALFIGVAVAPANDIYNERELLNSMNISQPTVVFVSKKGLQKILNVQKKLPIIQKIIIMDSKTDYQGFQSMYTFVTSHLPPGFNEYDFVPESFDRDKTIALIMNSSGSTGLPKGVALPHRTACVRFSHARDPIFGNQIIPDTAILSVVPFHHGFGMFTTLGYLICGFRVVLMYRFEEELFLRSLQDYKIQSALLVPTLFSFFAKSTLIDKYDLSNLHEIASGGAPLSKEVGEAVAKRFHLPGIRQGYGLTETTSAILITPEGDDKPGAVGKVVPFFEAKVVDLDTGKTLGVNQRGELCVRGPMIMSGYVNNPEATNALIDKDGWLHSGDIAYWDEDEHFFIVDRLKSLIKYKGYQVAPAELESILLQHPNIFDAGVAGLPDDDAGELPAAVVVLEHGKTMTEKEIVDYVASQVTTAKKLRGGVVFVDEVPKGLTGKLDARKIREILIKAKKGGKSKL
Result Type: IC50 (mM)
Field format: number, assumed mM, no unit text.

CC(=O)Oc1ccccc1C(=O)Nc1ccc(-c2nc3ccc(C)cc3s2)cc1 [NCGC00596510-01]    0.00881
COc1ccc(C(=O)Nc2onc3c2CCCC3)cc1 [NCGC00115906-01]    0.00197
O=C(NCCc1cccs1)c1cccc2c1CCN2C(=O)Nc1ccc(F)cc1 [NCGC00430196-01]    0.000785
CN(Cc1cnn(C)c1)C(=O)c1csc2nc(-c3ccc(C(F)(F)F)cc3)cn12 [NCGC00425000-01]    0.00442
Cc1c(NC(=O)c2ccc(I)o2)cccc1-c1nc2ccccc2s1 [NCGC00595010-01]    0.007

Could you share what IC50 was measured for O=C(Nc1ccccc1)c1nc2c(o1)CCN(CC1CC1)CC2 [NCGC00413351-01] , tested on FLuc-C-HiBiT (Photinus pyralis, UniProt P08659)?
0.0161

Could you share what IC50 was measured for CN1CCN(c2ccc(-c3cc4c(ccn4C)c(C(=O)NCCN4CCNC4=O)n3)cc2)CC1 [NCGC00411611-01] , tested on FLuc-C-HiBiT (Photinus pyralis, UniProt P08659)?
0.0124

Could you share what IC50 was measured for COc1ccc(-c2cc3c(cn2)CN(C)CCN3)cn1 [NCGC00411253-01] , tested on FLuc-C-HiBiT (Photinus pyralis, UniProt P08659)?
0.0226

Could you share what IC50 was measured for CC(=O)N1CCCN(c2ccc(-c3nc(-c4ccccc4F)no3)cn2)CC1 [NCGC00426241-01] , tested on FLuc-C-HiBiT (Photinus pyralis, UniProt P08659)?
0.0157

====

molecular target: FLuc-C-HiBiT (firefly luciferase) (Photinus pyralis, UniProt P08659, form not given/L550V); assay: SDR assay, FLuc-C-HiBiT; settings: 10 nM FLuc-C-HiBiT; normalized activity; Log [Compound], M -5.44
Sequence (P08659 2-550 L550V, form open): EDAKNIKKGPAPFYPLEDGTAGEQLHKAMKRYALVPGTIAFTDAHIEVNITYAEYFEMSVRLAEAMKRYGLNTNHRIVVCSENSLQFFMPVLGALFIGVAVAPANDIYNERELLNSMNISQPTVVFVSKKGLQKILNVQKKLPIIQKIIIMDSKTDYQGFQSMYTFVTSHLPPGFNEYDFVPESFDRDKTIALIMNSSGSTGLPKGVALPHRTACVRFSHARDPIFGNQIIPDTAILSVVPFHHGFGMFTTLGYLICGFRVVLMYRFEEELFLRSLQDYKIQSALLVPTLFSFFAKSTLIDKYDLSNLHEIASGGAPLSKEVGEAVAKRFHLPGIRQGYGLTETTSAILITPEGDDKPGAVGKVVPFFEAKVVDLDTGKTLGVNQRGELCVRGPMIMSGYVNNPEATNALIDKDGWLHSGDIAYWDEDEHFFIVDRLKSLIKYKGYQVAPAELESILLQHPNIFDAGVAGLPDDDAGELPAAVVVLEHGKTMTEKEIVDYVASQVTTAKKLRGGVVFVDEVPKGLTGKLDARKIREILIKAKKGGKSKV
List of SDR No ATP values.
Reply: number alone, nothing else.

These recorded examples may help you get a feel for the data.
COc1ccc(-c2nc(-c3ccc(C(=O)O)cc3)no2)cc1    32.3
O=C(O)c1cccc2c1CCN2C(=O)Nc1ccc(F)cc1    44.3
CC1CCCN(c2ncnc3c2cnn3-c2ccccc2)C1 (centres unmarked)    55.2

Could you share which SDR No ATP value was measured for CNC(=O)c1cccc2c1CCN2C(=O)Nc1ccc(C)cc1 ?
30.7

Could you share which SDR No ATP value was measured for Fc1ccc(-c2cn3cc(Cc4ccccc4)sc3n2)cc1 ?
47.1

Could you share which SDR No ATP value was measured for CC(CNC(=O)C1CCN(C(=O)c2ncn3c2COC(c2ccccc2)C3)CC1)c1ccccc1 (centres unmarked) ?
11.0

Could you share which SDR No ATP value was measured for Cc1ccc(-n2ncc3c(N4CCCCCC4)ncnc32)cc1 ?
57.9

Could you share which SDR No ATP value was measured for O=C(O)CCSc1nnc(-c2ccc(Cl)cc2Cl)o1 ?
16.7
